molecular target: 5-hydroxytryptamine receptor 2A (Homo sapiens, UniProt P28223); assay: Displacement of [3H]ketanserin from human 5HT2A expressed in CHOKI cells
Sequence (P28223 whole entry): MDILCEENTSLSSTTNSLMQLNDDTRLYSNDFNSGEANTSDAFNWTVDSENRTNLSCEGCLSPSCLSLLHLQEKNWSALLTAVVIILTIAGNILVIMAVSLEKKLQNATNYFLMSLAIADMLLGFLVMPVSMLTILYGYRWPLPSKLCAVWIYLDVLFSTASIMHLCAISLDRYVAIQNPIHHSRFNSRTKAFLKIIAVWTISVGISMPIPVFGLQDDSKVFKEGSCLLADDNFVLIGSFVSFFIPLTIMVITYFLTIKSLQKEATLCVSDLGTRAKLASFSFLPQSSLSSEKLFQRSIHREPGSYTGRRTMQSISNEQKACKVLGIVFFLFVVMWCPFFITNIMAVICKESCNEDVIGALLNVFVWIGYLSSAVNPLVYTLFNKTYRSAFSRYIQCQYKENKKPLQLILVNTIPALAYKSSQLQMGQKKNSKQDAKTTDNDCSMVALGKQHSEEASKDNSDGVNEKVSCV
property label: pIC50
Schema: pIC50 number; meaning minus log10 of the concentration expressed in molar units.

CN1CCN(c2cccc(N(CC3CC3)S(=O)(=O)c3ccc4ccccc4c3)c2)CC1 7.06
CC(C)N(c1cccc(N2CCN(C)CC2)c1)S(=O)(=O)c1cccc2ccccc12 6.91
CC(C)N(c1cccc(N2CCN(C)CC2)c1)S(=O)(=O)c1ccc2ccccc2c1 6.93
CN1CCN(c2cccc(N(Cc3ccccc3)S(=O)(=O)c3ccc4ccccc4c3)c2)CC1 7.30

[in] Please tell me: pIC50 of CCCN(c1cccc(N2CCN(C)CC2)c1)S(=O)(=O)c1ccc2ccccc2c1 , system 5-hydroxytryptamine receptor 2A (Homo sapiens, UniProt P28223)?
[out] 6.41

* * *

target: UniProtKB P35462; assay: Displacement of [3H]spiperone from human dopamine D3 receptor expressed in CHOKI cells
Sequence (P35462 whole entry): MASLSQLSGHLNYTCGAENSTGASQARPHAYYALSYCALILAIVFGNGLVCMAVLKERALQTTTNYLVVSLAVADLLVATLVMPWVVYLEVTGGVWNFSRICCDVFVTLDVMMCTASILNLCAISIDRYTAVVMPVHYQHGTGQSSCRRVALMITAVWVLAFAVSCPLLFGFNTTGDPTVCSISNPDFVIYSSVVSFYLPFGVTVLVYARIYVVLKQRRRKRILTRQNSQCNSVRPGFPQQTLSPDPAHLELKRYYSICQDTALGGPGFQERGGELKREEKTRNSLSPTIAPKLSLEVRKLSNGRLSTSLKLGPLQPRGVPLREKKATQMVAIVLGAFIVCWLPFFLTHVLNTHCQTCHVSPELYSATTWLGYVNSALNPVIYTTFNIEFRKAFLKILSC
Lab note: anything with IC50 below 1000 nM is marked y; values at 1000 nM or higher are marked n.

CCN(c1cccc(N2CCN(C)CC2)c1)S(=O)(=O)c1ccc2ccccc2c1 n

[in] Determine whether this molecule shows IC50 lower than 1000 nM (ties excluded): CN1CCN(c2cccc(N(Cc3ccccc3)S(=O)(=O)c3ccc4ccccc4c3)c2)CC1
[out] y

[in] Then this molecule: CC(C)N(c1cccc(N2CCN(C)CC2)c1)S(=O)(=O)c1cccc2ccccc12
[out] n

* * *

Target: 5-hydroxytryptamine receptor 2C (Homo sapiens, UniProt P28335)
Sequence (P28335 whole entry): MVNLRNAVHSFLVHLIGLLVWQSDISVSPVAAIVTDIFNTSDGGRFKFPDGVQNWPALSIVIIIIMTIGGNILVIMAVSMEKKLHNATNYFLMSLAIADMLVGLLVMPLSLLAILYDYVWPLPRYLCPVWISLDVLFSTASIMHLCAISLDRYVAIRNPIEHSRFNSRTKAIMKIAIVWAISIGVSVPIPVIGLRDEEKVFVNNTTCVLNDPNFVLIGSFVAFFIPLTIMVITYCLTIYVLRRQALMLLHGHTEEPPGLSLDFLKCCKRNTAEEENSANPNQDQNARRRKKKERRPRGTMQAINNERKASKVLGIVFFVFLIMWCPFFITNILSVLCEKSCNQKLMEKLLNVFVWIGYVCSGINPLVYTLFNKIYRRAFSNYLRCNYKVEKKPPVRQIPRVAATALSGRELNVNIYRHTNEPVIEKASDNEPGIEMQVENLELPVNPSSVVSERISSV
Assay: Displacement of [3H]mesulergine from human 5HT2C expressed in CHOKI cells
Recorded IC50 for the following compounds

Check out these entries, answers already filled in.
Cc1ccc(S(=O)(=O)N(c2cccc(N3CCN(C)CC3)c2)C(C)C)cc1 106 nM
CCC(CC)N(c1cccc(N2CCN(C)CC2)c1)S(=O)(=O)c1ccc2ccccc2c1 159 nM
CN1CCN(c2cccc(N(Cc3cccnc3)S(=O)(=O)c3ccc4ccccc4c3)c2)CC1 34 nM
CC(C)N(C(=O)Nc1ccccc1)c1cccc(N2CCN(C)CC2)c1 > 10000 nM
CC(C)N(c1cccc(N2CCN(C)CC2)c1)S(=O)(=O)c1ccc(Cl)cc1 243 nM
CCCN(c1cccc(N2CCN(C)CC2)c1)S(=O)(=O)c1ccc2ccccc2c1 7 nM
CC(C)N(C(=O)c1ccc(Cl)cc1)c1cccc(N2CCN(C)CC2)c1 7700 nM
CN1CCN(c2cccc(N(C)S(=O)(=O)c3ccc4ccccc4c3)c2)CC1 36 nM
CC(C)N(c1ccc(Oc2cccnc2)nc1)S(=O)(=O)c1ccc2ccccc2c1 > 10000 nM

[in] Which IC50 value is on record for CN1CCN(c2cccc(N(CC3CCCC3)S(=O)(=O)c3ccc4ccccc4c3)c2)CC1 ?
[out] 11 nM
